# System: PC-3 prostate
# method.notes: NCI-60 one-dose screen, 48 h (100 = growth as untreated, 0 = no growth, -100 = all killed)
# measurement.context: 10 µM unless noted
The panel holds about 83,000 compounds, 20% with a hit somewhere; the sample as a whole holds those more often.
// NB: equality with 40% counts as Not fulfilled; only growth strictly below is Fulfilled

- molecule: "CN(C)c1ccc(/C=C\\c2ccnc3ccccc23)cc1"
  assigned.class: "Not fulfilled"
- molecule: "O=C1/C(=C/c2ccc([N+](=O)[O-])o2)Oc2ccc(Br)cc21"
  assigned.class: "Not fulfilled"
- molecule: "N#CCCCCCn1c2ccccc2c2c3c(c4c5ccccc5[nH]c4c21)C(=O)N(O)C3=O"
  assigned.class: "Fulfilled"
- molecule: "Clc1ccc(-n2cnc3c(Cl)ncnc32)cc1Cl"
  assigned.class: "Not fulfilled"
- molecule: "OC(c1cc(C(F)(F)F)nc2c(C(F)(F)F)cccc12)C1CCCCN1 (stereo not given)"
  assigned.class: "Fulfilled"
- molecule: "C[C@]12CC[C@@H]3c4ccc(O)c([N+](=O)[O-])c4CC[C@H]3[C@@H]1CC[C@@H]2NS(=O)(=O)c1cccc(Br)c1"
  assigned.class: "Fulfilled"
- molecule: "CN1CCN(CC(=O)Nc2nc3c(s2)Nc2cc(Cl)c(Cl)cc2NC3=O)CC1"
  assigned.class: "Not fulfilled"
- molecule: "CCn1c2c(c3ccccc31)SC1c3cccn3CCN1C2=S (stereo not given)"
  assigned.class: "Not fulfilled"
- molecule: "Cn1cc(-c2csc(-c3c[nH]c4ncccc34)n2)c2cc(F)cnc21"
  assigned.class: "Not fulfilled"
- molecule: "COc1cccc(C2C(C#N)=C(N)Oc3cc(OC)ccc32)c1 (stereo not given)"
  assigned.class: "Fulfilled"

###

# System: UACC-257 melanoma
# method.notes: NCI-60 one-dose screen, 48 h
# measurement.context: 10 µM unless noted
About 83,000 compounds went through this panel and 20% of them were active in at least one assay; those are over-represented in the sample as a whole. Active and inactive are the calls of the source. The calls were made as follows: active = growth percent below 10; inactive = the rest.
Classes used: Yes = active, No = inactive

- compound: "CC(C)[C@]12O[C@H]1[C@@H]1O[C@]13[C@]1(O[C@H]1C[C@H]1C4=C(CC[C@@]13C)C(=O)OC4)[C@@H]2OC(=O)CN(C)C"
  assigned.class: "Yes"
- compound: "Cc1cc(C(C)(C)c2cc(C)c(O)c(CN(C)C)c2)cc(CN(C)C)c1O"
  assigned.class: "No"
- compound: "COc1ccc2c(c1)C(=O)c1c-2c(OCCCN(C)C)nc2cc(Br)ccc12"
  assigned.class: "No"
- compound: "O=C(NN(C(=O)c1ccccc1)c1cccs1)c1ccccc1"
  assigned.class: "No"
- compound: "CC[C@]1(O)CC2CN(CCc3c([nH]c4ccccc34)[C@@](C(=O)OC)(c3cc4c(cc3OC)N(C)[C@H]3[C@@](O)(C(=O)OC)[C@H](OC(C)=O)[C@]5(CC)C=CCN6CC[C@]43[C@@H]65)C2)C1 (stereo partly specified)"
  assigned.class: "No"
- compound: "O=C(Nc1cccc([N+](=O)[O-])c1)c1cccc(C(=O)Nc2cccc([N+](=O)[O-])c2)c1"
  assigned.class: "No"
- compound: "CN(C(=O)c1ccccc1)N(C)C(=O)c1ccccc1"
  assigned.class: "No"
- compound: "CCCCCCCCCCCCCCCCN=C(CC(=O)O)C(=O)O"
  assigned.class: "No"
- compound: "Clc1ccc(CCC(Cn2ccnc2)Sc2c(Cl)cccc2Cl)cc1 (stereo unspecified)"
  assigned.class: "No"
- compound: "COc1ccc(C2CC(c3ccc(OC)c(OC)c3)=NN2C(=O)c2cc(OC)c(OC)c(OC)c2)c(OC)c1 (stereo unspecified)"
  assigned.class: "No"
- compound: "CCn1c2ccccc2c2ccc(C(C)=O)cc21"
  assigned.class: "No"
- compound: "Cc1ccc(NC(=O)Nc2ccc(-c3cccnc3)cc2N2CCC(CO)CC2)cc1"
  assigned.class: "No"
- compound: "O=C(Oc1ccc[nH]c1=O)c1cccc(Cl)c1"
  assigned.class: "No"
- compound: "Clc1ccc2c(Nc3ccc4oc(NCCN5CCCC5)nc4c3)ccnc2c1"
  assigned.class: "No"
- compound: "N#CCCCCCn1c2ccccc2c2c3c(c4c5ccccc5[nH]c4c21)C(=O)N(O)C3=O"
  assigned.class: "No"
- compound: "Oc1ccccc1/C=N\\Nc1ccccc1"
  assigned.class: "No"
- compound: "O=C(/C=C/c1cc2ccccc2[nH]c1=O)c1ccc(O)cc1"
  assigned.class: "No"
- compound: "NNC(=O)C1CC2c3ccccc3C1c1ccccc12 (stereo unspecified)"
  assigned.class: "No"
- compound: "Oc1[nH]c2ccccc2c1/C=c1/ccc2c(c1)N=C(c1cc(F)cc(F)c1)N=2"
  assigned.class: "No"
- compound: "CC(=O)NC1(C(=O)O)CCCC1"
  assigned.class: "No"
- compound: "O=C(/C=C/c1cccnc1)/C=C/c1cccnc1"
  assigned.class: "No"

###

# Test system: IGROV1 ovarian
# method.notes: NCI-60 one-dose screen, 48 h (100 = growth as untreated, 0 = no growth, -100 = all killed)
# measurement.context: 10 µM unless noted
Compounds without any hit were thinned out: in the full panel of roughly 83,000, 20% have a hit.

- molecule: "CC12CCCCC1C(C(N)=O)C(=O)O2 (stereo not given)"
  growth, %: 119
- molecule: "C/C(=C\\CCc1ccsc1)CC/C=C(\\C)CCCN1CCN(CCO)CC1"
  growth, %: 52.8
- molecule: "CCSc1nnc2n(Cc3ccccc3)c(=O)c3c(C)c(C(N)=O)sc3n12"
  growth, %: 101
- molecule: "Clc1ncn[nH]1"
  growth, %: 105
- molecule: "Cc1c(C(N)=O)sc2c1c(=O)n(Cc1ccccc1)c1nnc(S(=O)(=O)CC(=O)Nc3ccc(Cl)cc3)n21"
  growth, %: 40
- molecule: "Cc1ccccc1NC(=O)c1cc2ccccc2cc1O"
  growth, %: 30.2
- molecule: "COc1cc(/C=C2\\CCC/C(=C\\c3ccc(OCC4CO4)c(OC)c3)C2=O)ccc1OCC1CO1 (stereo not given)"
  growth, %: -12.6
- molecule: "CC(C)(C)c1cc(O)c(O)c(C(C)(C)C)c1"
  growth, %: 49.9
- molecule: "O=C(CSc1nc2c(n1Nc1ccccc1)-c1ccccc1SC2)Nc1nc(-c2ccc(Cl)cc2)cs1"
  growth, %: 86
- molecule: "C=C(C)[C@@H]1C/C=C(/C=O)CC[C@@H]2O[C@@]2(C)CC/C=C(\\C)CC1"
  growth, %: 986

###

# Tested on: OVCAR-5 ovarian
# method.notes: NCI-60 one-dose screen, 48 h (100 = growth as untreated, 0 = no growth, -100 = all killed)
# measurement.context: 10 µM unless noted
Compounds without any hit were thinned out: in the full panel of roughly 83,000, 20% have a hit.
Could you please classify the records by growth using these ranges: low bracket = under 70%, middle bracket = from 70% up to 90%, high bracket = 90% and over

- compound: "CCOC(Cc1c(N)[nH]c(=S)[nH]c1=O)OCC"
  assigned.class: "high bracket"
- compound: "O=C1NCN(CCO)CN1"
  assigned.class: "high bracket"
- compound: "C/C(=C\\CCc1ccoc1)CC/C=C(\\C)CCCN1CCC(CO)CC1"
  assigned.class: "middle bracket"
- compound: "Cc1cc(C)c2c(c1)N1OC(C2)C[C@H]1/C=C/c1ccccc1 (stereo not given in full)"
  assigned.class: "high bracket"
- compound: "COc1ccc(-c2noc(N)c2-c2cc(OC)c3c(c2)OCO3)cc1"
  assigned.class: "low bracket"
- compound: "O=C(/C=C/c1ccccc1Cl)c1ccc(O)cc1"
  assigned.class: "high bracket"
- compound: "CC(=O)O[C@H]1C(=O)[C@@]2(C)C([C@H](OC(=O)c3ccccc3)[C@]3(O)C[C@H](OC(=O)[C@H](O)[C@@H](NC(=O)c4ccccc4)c4ccccc4)C(C)=C1C3(C)C)[C@]1(OC(C)=O)CO[C@@H]1C[C@@H]2O (stereo not given in full)"
  assigned.class: "low bracket"
- compound: "Oc1[nH]c2ccccc2c1/C=c1/ccc2c(c1)N=C(c1cc(F)cc(F)c1)N=2"
  assigned.class: "middle bracket"
- compound: "CC/C(=C\\c1ccc(N(C)C)cc1)c1ccncc1"
  assigned.class: "middle bracket"

###

# System: OVCAR-8 ovarian
# method.notes: NCI-60 one-dose screen, 48 h (100 = growth as untreated, 0 = no growth, -100 = all killed)
# measurement.context: 10 µM unless noted
# Method: Growth inhibition of the OVCAR-8 human tumor cell line is measured as a screen for anti-cancer activity. Cells are grown in 96 well plates and exposed to the test compound for 48 hours. Compounds are tested at a single concentration, which is 10^-5 M for most compounds. The reported endpoint is percent growth (GI% or GIPRCNT), where numbers from 0 - 100% represent growth inhibition, and numbers from -100% - 0 represent cell death. For example, a value of 40 represents 60% growth inhibition. […]
About 83,000 compounds went through this panel and 20% of them were active in at least one assay; those are over-represented in the sample as a whole.
observed.property: growth (%)

- molecule: "COc1ccc(-c2c3c(nn2-c2ccc(N)cc2)CCc2cnoc2-3)cc1OC"
  observed.property: "growth"
  recorded.value: 65
- molecule: "CSC1=Nc2c(c(C)c(-c3ccccc3)n2CCCN2CCCCC2)C2=NC(=O)C[C@H](C)N12"
  observed.property: "growth"
  recorded.value: 44.6
- molecule: "C=Cc1nn2c(CCC(=O)c3nc4ccccc4[nH]3)nnc2s1"
  observed.property: "growth"
  recorded.value: 108
- molecule: "CN1COc2ccc3ccccc3c2C1"
  observed.property: "growth"
  recorded.value: 93
- molecule: "O=C1NCC(Nc2ccc(Br)cc2Cl)C(=O)N1 (stereo unspecified)"
  observed.property: "growth"
  recorded.value: 130
- molecule: "O=[N+]([O-])c1ccc2c(c1)S(=O)c1cc([N+](=O)[O-])ccc1N2"
  observed.property: "growth"
  recorded.value: 101
